assay: folding stability dG unfold (combined trypsin and chymotrypsin); higher = more stable
Provide the recorded folding stability dG unfold for the entries that follow.
Just the number please, in kcal/mol, no unit attached.

Prompt: What does the data say about its folding stability dG unfold? Entry: SAGGSAKILEEALEALKKAKPGEEVEIEIEIEVNGKKYRIKVKVTYDEETGKITIEIVEIEELPEESAGGSA [r15_724_TrROS_Hall]
Response: 3.8

Prompt: What does the data say about its folding stability dG unfold? Entry: SAGGLYKKDPDGQYVKPVPKVPPIPIEIKFPNGVEVKIEIYPYSNHITIEYTGPNPELANELIQEIIQSAGG [r13_701_TrROS]
Response: 0.702

Prompt: What does the data say about its folding stability dG unfold? Entry: SAGKSIKIPYIIRFPSPNGEPHLMRIKEVTINPKPGMVKIKFQMPGKKQTHTVPPNNIEILPDPEEILKSAG [r5_15_TrROS]
Response: -0.0216

Prompt: What does the data say about its folding stability dG unfold? Entry: SAGGSAGGSAGKAESGDNAITLTLPGGHKVTIPNLPPNEPVWVKLNNRWVKIGDLKVNPKSAGGSAGGSAGG [r11_16_TrMRF]
Response: 0.196

Prompt: What does the data say about its folding stability dG unfold? Entry: SAGGSFVKIKVKFDNKPIEIPIPDFVQKVEGDYQTIVFPEGDADSVLKKLKEASKKIEIVKVEVVKPSAGGS [r8_490_TrMRF]
Response: 0.354

Prompt: What does the data say about its folding stability dG unfold? Entry: SAGGSAGGSGMSSTSTTTVEIEKDPSTGKVLKKTVTSPTTTLAPGGEWTTTVSTSTEEISPDLSAGGSAGGS [r12_629_JUSTAS]
Response: -0.237

Prompt: What does the data say about its folding stability dG unfold? Entry: SAGGMPPGSFRVRARRPVPLFVRVRLPNDPDVTVTFPVTVPAELELPVNSPEALEALREAGFEIEPASAGGS [r8_482_TrMRF]
Response: 0.357

Prompt: What does the data say about its folding stability dG unfold? Entry: SAGGGMEIRLTIYRVDPETGVETSVEKEVTLEEAKEIVKEIPEEGEYTVRVTRPDRPEDVSPEELKLLSAGG [r13_254_JUSTAS]
Response: 0.192

Prompt: What does the data say about its folding stability dG unfold? Entry: SAKRVNVEIWIPGDWDEIQEIAEDINFPVEIERNPDKPDMYRITFTFPTPEKAPKILDALNKHGMQIEISAG [r14_745_TrROS]
Response: 1.64

Prompt: What does the data say about its folding stability dG unfold? Entry: SAGKMLVVRIEVEVEVEVTVEKDGKKETFKEKKKLTLTLVFESEEEAEAAKKELEKLFPDLKIEVVPLPSAG [r5_453_TrROS_Hall]
Response: 4.54

Prompt: What does the data say about its folding stability dG unfold? Entry: SAGMVKVEVEYRPLPNGTVEVTVKLTITEPVPDEDGNLYYKTKTLTITVPTTSLSEAPKHVEEFIKKLSAGG [r19_218_TrMRF]
Response: 3.37

Prompt: What does the data say about its folding stability dG unfold? Entry: SAGGLSGEAKLVEAEFEPETGTVRVFAEAGDELLTFEFKGTPFLPPIPASISPESLEKDEPVIRVSGSAGGS [r16_809_TrMRF]
Response: 0.422

Prompt: What does the data say about its folding stability dG unfold? Entry: SAGGSAGGSAGSYPIEYIPAPPDRLWLIDPKNGKIYEIYLDPERGEYSFEEIKEFPLGLESAGGSAGGSAGG [r11_352_JUSTAS]
Response: 1.57

Prompt: What does the data say about its folding stability dG unfold? Entry: SMKPGDVKVIEIEVEYPWPPGDPEKAKEKVRDLVNSIMQEHGYDVDIPVEIEPRDGRYRVEVPIIIRPPNSA [r9_889_TrROS]
Response: -0.409

Prompt: What does the data say about its folding stability dG unfold? Entry: SAGGSAGGGGSSMTIVDPKDVPFGQTFTVTTYAPGGKKISTTTLTVDVPPPVWRTDGNGKWFLESAGGSAGG [r6_487_JUSTAS]
Response: 0.4

Prompt: What does the data say about its folding stability dG unfold? Entry: SAGGKKKKVKKKKPVYRIKIKLKNGEEIEIEAKSKEEAEKAAKELLKKLFPEKKIDEIKIVEIEKLPPSAGG [r13_887_TrROS_Hall]
Response: 2.69

Prompt: What does the data say about its folding stability dG unfold? Entry: SAGGEEELRKAAEIAAAPPLEIEPVLETFTVETEEGPRVVLVISPVVRFPGDGVLIPNPVLVIPAEELSAGG [r19_11_TrMRF]
Response: 0.699

Prompt: What does the data say about its folding stability dG unfold? Entry: SAGKTATFTFTLPLPENDLILRVTVRVEEVEDIGEKKVYRVNVEIDLIDKDGVPHRFSFSFLVPAEELFSAG [r14_916_TrMRF]
Response: 4.83

Prompt: What does the data say about its folding stability dG unfold? Entry: SAGKPLTPDEAKELAEELVDAFAEEFARRHGMPPDDMKVIEVEETPDGYIQVTFRMPNMPMKFEIPVKDSAG [r5_565_TrROS]
Response: 0.366

Prompt: What does the data say about its folding stability dG unfold? Entry: SAGGSAGGSAGGAPEVKRVLVLVEVEVKPGDTIELPEGARVIWDPKTRRLYVLVEVELRPSAGGSAGGSAGG [r7_584_TrROS_Hall]
Response: 3.38

Prompt: What does the data say about its folding stability dG unfold? Entry: SAGGIVPLPNGHWVIMAQFEVDEGQTVDDAPEFAREIAKTFGIKPTQVQVDPEKGYVNVAIKIPPGALSAGG [r13_178_TrROS]
Response: 0.327

Prompt: What does the data say about its folding stability dG unfold? Entry: SAGGSAGGSAGGEKEEEEVTVTIYNKETDKVIEITVPKGVTEEEARKKAKELAEELEKKKSAGGSAGGSAGG [r7_957_TrROS_Hall]
Response: -0.00187

Prompt: What does the data say about its folding stability dG unfold? Entry: SAGFKIKIEPIEVLPNGTVKYKAIIETEKEKYEVEAFYNPKTGLIYIYSPKTGSIMKINPKTGKIILIPSAG [r14_260_TrMRF]
Response: 4.03

Prompt: What does the data say about its folding stability dG unfold? Entry: SMKPGETVTLEVVIRVKKENMTLEEIAEEVANAIKALLPPGAKITIEVVDIEYDEETDEVYVKLKITIENSA [r9_706_TrROS_Hall]
Response: 3.01

Prompt: What does the data say about its folding stability dG unfold? Entry: SAGGSAGGSAKIEVEVTPLPGNKVLKIIKFENGEYIIEVFYFDPETGKIYSESEIISEEELLSAGGSAGGSA [r18_325_TrMRF]
Response: 2.05

Prompt: What does the data say about its folding stability dG unfold? Entry: SAGGSAGGSAKIIIIEEDPEEAIRRVEELFGPGARIEPVRVVRVGDKVYVAVGIDIPASLASAGGSAGGSAG [r3_87_TrMRF]
Response: 0.977

* * *

assay: folding stability dG unfold from chymotrypsin proteolysis; higher = more stable
Would you mind labelling by folding stability dG unfold? At or over 2 kcal/mol is condition met, under is condition not met.

Prompt: Assess whether reported folding stability dG unfold for SAGGSAGGSAGGKKLTFKAEIVSEEEIEINGKKYRIFKVKVTLPDGSKLTLTVIVELDDLSAGGSAGGSAGG [r7_846_TrROS_Hall] sits at 2 kcal/mol or higher.
Response: condition met

Prompt: Assess whether reported folding stability dG unfold for SAGGSAMSVDPVGERTTITILYKDKPVTVPTGPLEEVEREVAAVLEEIEAKTGRKISPDTEVSFVPSAGGSA [r15_496_JUSTAS] sits at 2 kcal/mol or higher.
Response: condition not met

Prompt: Assess whether reported folding stability dG unfold for SAGGSAGGMKTTTYTFPGTLEEAKALAEELVAALPPHAKEVTVEVTPDPATGTVTVTITVKELASAGGSAGG [r6_164_JUSTAS] sits at 2 kcal/mol or higher.
Response: condition met

Prompt: Assess whether reported folding stability dG unfold for SAGGSAGGSAGGSPFWRIKIENPGNGKEITVMVPPDDIDKAKEEAEQEGLKKIEIEPVPSAGGSAGGSAGGS [r4_102_TrROS] sits at 2 kcal/mol or higher.
Response: condition not met

Prompt: Assess whether reported folding stability dG unfold for MTPTFTVTELPPDLLRVEYTDPVTGKRATFTLPVSPVGDGVRLSAEVDAEGLPEEVAAAIRDAALAALAAAS [r1_403_JUSTAS] sits at 2 kcal/mol or higher.
Response: condition met

Prompt: Assess whether reported folding stability dG unfold for SAGMEPTTITVDVTIPPEVFARLSEEELKEKVLAELGIPESLPVEVEISRKEVKLDGKTVYVVPMTIVGSAG [r14_334_JUSTAS] sits at 2 kcal/mol or higher.
Response: condition not met

Prompt: Assess whether reported folding stability dG unfold for SAGGSAGGSKKKITRIVITDFDPETGKVTVRIRNENGEEETIEVETLEELKELFPDVEVEVIPSAGGSAGGS [r12_403_TrROS_Hall] sits at 2 kcal/mol or higher.
Response: condition met

Prompt: Assess whether reported folding stability dG unfold for SAGMVVKFVSPSKKYVAVVYFSPDGKYRTALLYDASGELVSVIPSSVPVEELLEAFPDATVEVYPLDPPSAG [r5_314_TrMRF] sits at 2 kcal/mol or higher.
Response: condition met

Prompt: Assess whether reported folding stability dG unfold for SAGGSAGGSGPELRPPDVPSTTVPLKVSPEEAKEILKELLGLPEDVEVPFGSIDPATGVITLVSAGGSAGGS [r12_815_JUSTAS] sits at 2 kcal/mol or higher.
Response: condition not met

Prompt: Assess whether reported folding stability dG unfold for SQNGGPKRKVTITIIIVIPPGQRNPDGKPRPSVEELARYLQKELQEQFPGNKDVKIDITIIPLGDPEQIKSA [r9_329_TrROS] sits at 2 kcal/mol or higher.
Response: condition met

Prompt: Assess whether reported folding stability dG unfold for SAGGSAGGSKKALVVFYNPETGEVEVLEVEGDADLLKELFEPGTVVEIRVGDEVITIYPEDLKSAGGSAGGS [r20_36_TrMRF] sits at 2 kcal/mol or higher.
Response: condition met

Prompt: Assess whether reported folding stability dG unfold for SAGGSAGGSAGKKIKLPKELKGKKIEVKEVEIEVEVNGKKYKFKAKIVKFDGKIIAIELESAGGSAGGSAGG [r11_21_TrROS_Hall] sits at 2 kcal/mol or higher.
Response: condition met

Prompt: Assess whether reported folding stability dG unfold for SAGEKKKVVIVVHIHIEAESEEDREKALEEARKLAEELARELKEKLGLPEDVKEVVVIVHIHPRSEEEKSAG [r5_436_TrROS_Hall] sits at 2 kcal/mol or higher.
Response: condition met
